Below is a list of entries, each paired with its recorded melting point value.

# annotated cases, reported melting point shown
Compound	Measurement
CSc1nc(Cl)c(-c2c(F)cc(F)cc2F)c(Cl)n1	75 °C
Cc1cc(C=NO)ccc1C(=O)NCc1ccccn1	160 to 161 °C
CCN1C(=O)Cc2cc3c(cc21)C(=O)CO3	181 to 184 °C
CCOC(OCC)N1C(=O)C(c2ncnc3cc(OCCOC)c(OC)cc23)c2ccccc21 (stereo unspecified)	148 to 150 °C
O=C(NC(=O)C(c1ccccc1)c1ccccc1)OCC1CC1	108 °C

QUERY: Assign melting point to the following record: CC(C(=O)O)c1cccc(C2(c3ccccc3)OCCO2)c1 (stereo unspecified)
RESULT: 91 to 94 °C

QUERY: Assign melting point to the following record: Fc1ccc(-c2nc3ccc(N4CCN(C5CC5)CC4)nn3c2-c2ccnnc2)cc1
RESULT: 206 to 209 °C

QUERY: Assign melting point to the following record: CON=C1Cc2ccccc2N(C(N)=O)c2ccccc21
RESULT: 158 to 159 °C
